- assay_summary: Solubility studies in aqueous media, excipients or solvents (18-24 hrs, HPLC; solid form by XRPD)
- Type: physicochemical
- assay_conditions: methyl ethyl ketone, organic solvent or mixture, thermodynamic from solid; Methyl ethyl keone
property_label: solubility at 24 h

Inquiry: # return recorded solubility at 24 h for input Cc1csc(-c2nnc(Nc3ccc(Oc4ncccc4-c4ccnc(N)n4)cc3)c3ccccc23)c1 [AMG 900 bismesylate dihydrate form B]
Reply text: < 1 µg/mL

###

- assay_summary: Solubility studies in aqueous media, excipients or solvents (18-24 hrs, HPLC; solid form by XRPD)
- Type: physicochemical
- assay_conditions: phosphate buffer, aqueous buffer, thermodynamic from solid; pH 7.0 Phosphate
property_label: solubility at 24 h

Inquiry: # return recorded solubility at 24 h for input Cc1csc(-c2nnc(Nc3ccc(Oc4ncccc4-c4ccnc(N)n4)cc3)c3ccccc23)c1 [AMG 900 bismesylate dihydrate form B]
Reply text: < 1 µg/mL

###

- assay_summary: Solubility studies in aqueous media, excipients or solvents (18-24 hrs, HPLC; solid form by XRPD)
- Assay type: physicochemical
- assay_conditions: THF, organic solvent or mixture, thermodynamic from solid
property_label: solubility at 24 h (µg/mL)
Report the value in µg/mL with no unit label.

Inquiry: # return recorded solubility at 24 h for input Cc1csc(-c2nnc(Nc3ccc(Oc4ncccc4-c4ccnc(N)n4)cc3)c3ccccc23)c1 [AMG 900 bismesylate dihydrate form B]
Reply text: 12

###

- assay_summary: Solubility studies in aqueous media, excipients or solvents (18-24 hrs, HPLC; solid form by XRPD)
- Assay type: physicochemical
- assay_conditions: methanol/water (9:1), organic solvent or mixture, thermodynamic from solid
property_label: solubility at 24 h

Inquiry: # return recorded solubility at 24 h for input Cc1csc(-c2nnc(Nc3ccc(Oc4ncccc4-c4ccnc(N)n4)cc3)c3ccccc23)c1 [AMG 900 bismesylate dihydrate form B]
Reply text: > 12 mg/mL

###

- assay_summary: Solubility studies in aqueous media, excipients or solvents (18-24 hrs, HPLC; solid form by XRPD)
- Assay type: physicochemical
- assay_conditions: phosphate buffer, aqueous buffer, thermodynamic from solid; pH 12.0 Phosphate
property_label: solubility at 24 h

Inquiry: # return recorded solubility at 24 h for input Cc1csc(-c2nnc(Nc3ccc(Oc4ncccc4-c4ccnc(N)n4)cc3)c3ccccc23)c1 [AMG 900 bismesylate dihydrate form B]
Reply text: < 1 µg/mL

###

- assay_summary: Solubility studies in aqueous media, excipients or solvents (18-24 hrs, HPLC; solid form by XRPD)
- Format: physicochemical
- assay_conditions: methanol, organic solvent or mixture, thermodynamic from solid
property_label: solubility at 24 h

Inquiry: # return recorded solubility at 24 h for input Cc1csc(-c2nnc(Nc3ccc(Oc4ncccc4-c4ccnc(N)n4)cc3)c3ccccc23)c1 [AMG 900 bismesylate dihydrate form B]
Reply text: > 12 mg/mL

###

- Tested on: p-Histone H3
- assay_summary: p-Histone H3 in Jurkat cells
- assay_conditions: Homo sapiens, 1 h, read-out: IC50 for p-Histone H3
property_label: IC50 (µM)
Report the value in µM with no unit label.

Inquiry: # return recorded IC50 for input `Cc1csc(-c2nnc(Nc3ccc(Oc4ncccc4-c4ccnc(N)n4)cc3)c3ccccc23)c1`
Reply text: 0.066

###

- assay_summary: Solubility studies in aqueous media, excipients or solvents (18-24 hrs, HPLC; solid form by XRPD)
- Assay type: physicochemical
- assay_conditions: aqueous MSA, aqueous buffer, thermodynamic from solid; pH 1.5 MSA
property_label: solubility at 24 h (µg/mL)
Report the value in µg/mL with no unit label.

Inquiry: # return recorded solubility at 24 h for input Cc1csc(-c2nnc(Nc3ccc(Oc4ncccc4-c4ccnc(N)n4)cc3)c3ccccc23)c1 [AMG 900 bismesylate dihydrate form B]
Reply text: 3400

###

- assay_summary: Solubility studies in aqueous media, excipients or solvents (18-24 hrs, HPLC; solid form by XRPD)
- Type: physicochemical
- assay_conditions: aqueous MSA, aqueous buffer, thermodynamic from solid; pH 2.0 MSA
property_label: solubility at 24 h (µg/mL)
Report the value in µg/mL with no unit label.

Inquiry: # return recorded solubility at 24 h for input Cc1csc(-c2nnc(Nc3ccc(Oc4ncccc4-c4ccnc(N)n4)cc3)c3ccccc23)c1 [AMG 900 bismesylate dihydrate form B]
Reply text: 1620

###

- assay_summary: Solubility studies in aqueous media, excipients or solvents (18-24 hrs, HPLC; solid form by XRPD)
- Type: physicochemical
- assay_conditions: isopropyl alcohol, organic solvent or mixture, thermodynamic from solid
property_label: solubility at 24 h

Inquiry: # return recorded solubility at 24 h for input Cc1csc(-c2nnc(Nc3ccc(Oc4ncccc4-c4ccnc(N)n4)cc3)c3ccccc23)c1 [AMG 900 bismesylate dihydrate form B]
Reply text: > 1 µg/mL

###

- assay_summary: Solubility studies in aqueous media, excipients or solvents (18-24 hrs, HPLC; solid form by XRPD)
- Format: physicochemical
- assay_conditions: DMF, organic solvent or mixture, thermodynamic from solid
property_label: solubility at 24 h

Inquiry: # return recorded solubility at 24 h for input Cc1csc(-c2nnc(Nc3ccc(Oc4ncccc4-c4ccnc(N)n4)cc3)c3ccccc23)c1 [AMG 900 bismesylate dihydrate form B]
Reply text: > 12 mg/mL

###

- assay_summary: Solubility studies in aqueous media, excipients or solvents (18-24 hrs, HPLC; solid form by XRPD)
- Type: physicochemical
- assay_conditions: organic solvent or mixture, thermodynamic from solid; Dichloroethane (DCE)
property_label: solubility at 24 h (µg/mL)
Report the value in µg/mL with no unit label.

Inquiry: # return recorded solubility at 24 h for input Cc1csc(-c2nnc(Nc3ccc(Oc4ncccc4-c4ccnc(N)n4)cc3)c3ccccc23)c1 [AMG 900 bismesylate dihydrate form B]
Reply text: 8
